Entry source: the RNAGym collection of RNA variant scans (doi:10.7554/elife.80360)

B1: Twister Ribozyme (parent)
chain: AACACUGCCAAUGCCGGUCCCAAGCCCGGAUAAAAGUGGAGGGGGCGG

# Variants of: B1
# procedure.details: self-cleavage, relative activity (ratio to wild type); higher = more cleavage; co-transcriptional
endpoint.label: self-cleavage
Lab note: record just the number, no unit beside it.

// solved cases for self-cleavage follow
| mutation.id | self-cleavage |
| --- | --- |
| G7A G36A | 0.109 |
| C25A A32U | 0.078 |
| A32U G47U | 0.83 |

[Q] Could you tell me which self-cleavage is on file for C15G C25A ?
[A] 0.0585

[Q] Another variant to look at: A23C G44C
[A] 0.212

[Q] Now the same for C15G C26U
[A] 0.0429

[Q] Here is the next variant: A10U U31G
[A] 0.948
